measured.target: Potassium voltage-gated channel subfamily KQT member 1 (Homo sapiens)
assay: inhibitors of human KCNQ1 channel, primary screen, cell-based, thallium flux, high-throughput (AID 2642);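 also: channel opened by potassium depolarization with thallium stimulus after 20 min compound exposure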
condition.label: CHO-K1 KCNQ1, FluxOR thallium flux fluorescence, at 10 µM
Screen size: about 310,000 compounds; about 3,900 (1.3%) were called active.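 The calls were made as follows: active = compounds whose thallium flux B-score, printed positive for inhibition, exceeds three library SD while starting fluorescence stays within three; inactive = the rest.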 What follows is part of a selection rich in actives, with near analogues and random picks from the rest.
Select the correct class. Options are active, inactive and nothing else.

Query block: GET /call?item= CC(=O)N1CCCc2cc(S(=O)(=O)N3CCCC(C(=O)N4CCN(c5cccc(Cl)c5)CC4)C3)ccc21 (configuration not stated) returns the recorded outcome of this test.
Result block: active

Query block: GET /call?item= CC1CCc2c(c3ccccc3[nH]c2=O)O1 (configuration not stated) returns the recorded outcome of this test.
Result block: inactive

Query block: GET /call?item= O=C(O)CCCCCCCCCC[n+]1ccccc1 returns the recorded outcome of this test.
Result block: inactive

Query block: GET /call?item= COc1ccc(-c2oc3ncnc(NCCCO)c3c2-c2ccc(OC)cc2)cc1 returns the recorded outcome of this test.
Result block: inactive

Query block: GET /call?item= COc1ccc(-c2oc3ncn(Cc4ccco4)c(=N)c3c2-c2ccc(OC)cc2)cc1 returns the recorded outcome of this test.
Result block: active

Query block: GET /call?item= O=C(O)c1cnn2c(C(F)(F)F)cc(-c3ccccc3)nc12 returns the recorded outcome of this test.
Result block: inactive

Query block: GET /call?item= CC(=O)N1c2ccc(S(=O)(=O)N3CCCC(C(=O)Nc4cccc(Cl)c4)C3)cc2CC1C (configuration not stated) returns the recorded outcome of this test.
Result block: inactive

Query block: GET /call?item= CCOC(=O)N1CCN(C(=O)c2ccc(S(=O)(=O)Nc3cccc(C(F)(F)F)c3)cc2)CC1 returns the recorded outcome of this test.
Result block: inactive

Query block: GET /call?item= CC(=O)N1CCCc2cc(S(=O)(=O)N3CCCC(C(=O)NCc4ccc(Cl)cc4)C3)ccc21 (configuration not stated) returns the recorded outcome of this test.
Result block: inactive

Query block: GET /call?item= COc1cccc(/C=N/Nc2ncc(C(F)(F)F)cc2Cl)c1O returns the recorded outcome of this test.
Result block: inactive

Query block: GET /call?item= O=C(NCCCN1CCCCC1)C1CC(=O)N(CCc2ccccc2)C1 (configuration not stated) returns the recorded outcome of this test.
Result block: inactive

Query block: GET /call?item= CCOC(=O)C1CCN(Cc2nnc(-c3cccc(Br)c3)o2)CC1 returns the recorded outcome of this test.
Result block: inactive

Query block: GET /call?item= COc1cccc(/C=N/NC(=O)c2[nH]nc3c2CCc2ccccc2-3)c1O returns the recorded outcome of this test.
Result block: inactive

Query block: GET /call?item= Cc1ccc(OCC(=O)Nc2ccccc2C(=O)NC2CC2)cc1C returns the recorded outcome of this test.
Result block: inactive

Query block: GET /call?item= CCOc1ccc(C(CCc2ccccc2)NC(=O)c2ccc(OC)c(OC)c2)cc1OCC (configuration not stated) returns the recorded outcome of this test.
Result block: inactive

Query block: GET /call?item= COc1ccccc1C(=O)NC(CCSC)C(=O)NNC(=O)c1csc(N2CCOCC2)n1 (configuration not stated) returns the recorded outcome of this test.
Result block: inactive

Query block: GET /call?item= COc1ccc(/C(=N\O)c2nccc3cc(OC)c(OC)cc23)cc1OC returns the recorded outcome of this test.
Result block: inactive

Query block: GET /call?item= CCC(=O)OCc1c(C(F)(F)F)nn(C)c1Oc1cccc(C(F)(F)F)c1 returns the recorded outcome of this test.
Result block: inactive

Query block: GET /call?item= COc1cccc(/C=N/Nc2cc(C)nc(-c3ccccc3O)n2)c1O returns the recorded outcome of this test.
Result block: active

Query block: GET /call?item= COc1ccc2[nH]c3c(=O)n(Cc4ccco4)cnc3c2c1 returns the recorded outcome of this test.
Result block: inactive

Query block: GET /call?item= CCOC(=O)C1CCN(c2ncnc3c2c(-c2ccccc2)cn3-c2ccc(C)cc2)CC1 returns the recorded outcome of this test.
Result block: inactive

Query block: GET /call?item= Cc1cccc(N2CCN(C(=O)c3cnn4c(C(F)F)cc(-c5ccccc5)nc34)CC2)c1C returns the recorded outcome of this test.
Result block: active

* * *

measured.target: Potassium voltage-gated channel subfamily KQT member 1 (Homo sapiens) (UniProt P51787)
Sequence (P51787 whole entry, looked up): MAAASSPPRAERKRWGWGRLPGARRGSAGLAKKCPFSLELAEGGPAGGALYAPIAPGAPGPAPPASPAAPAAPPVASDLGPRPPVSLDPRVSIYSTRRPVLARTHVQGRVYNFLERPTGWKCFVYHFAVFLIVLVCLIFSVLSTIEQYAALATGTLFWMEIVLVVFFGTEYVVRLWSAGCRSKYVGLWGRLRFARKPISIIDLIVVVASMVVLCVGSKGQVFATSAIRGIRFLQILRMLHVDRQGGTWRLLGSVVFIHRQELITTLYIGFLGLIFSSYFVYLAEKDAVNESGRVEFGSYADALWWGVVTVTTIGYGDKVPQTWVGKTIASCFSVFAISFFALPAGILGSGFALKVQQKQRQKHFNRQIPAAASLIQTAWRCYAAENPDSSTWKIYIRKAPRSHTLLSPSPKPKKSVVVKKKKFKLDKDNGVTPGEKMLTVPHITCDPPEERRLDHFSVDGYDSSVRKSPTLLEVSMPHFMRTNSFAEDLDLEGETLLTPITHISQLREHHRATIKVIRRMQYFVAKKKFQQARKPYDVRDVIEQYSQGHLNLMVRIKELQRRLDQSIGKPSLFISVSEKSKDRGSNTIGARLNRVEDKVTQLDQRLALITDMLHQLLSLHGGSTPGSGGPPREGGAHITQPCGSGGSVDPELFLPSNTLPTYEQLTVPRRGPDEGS
assay: inhibitors of human KCNQ1 channel, primary screen, cell-based, thallium flux, high-throughput (AID 2642);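 also: channel opened by potassium depolarization with thallium stimulus after 20 min compound exposure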
condition.label: CHO-K1 KCNQ1, FluxOR thallium flux fluorescence, at 10 µM; active compounds read high
Hit rate of the full screen: of about 310,000 compounds, about 3,900 (1.3%) were called active. Only a selection was taken, and actives are over-represented in it overall.
measured.metric: B-score

# annotated cases, reported B-score shown
[[record]]
compound = "Cc1ccc(-n2ncc(C(=O)NC3CC3)c2C2CCN(C(=O)OC(C)(C)C)CC2)c(C)c1"
measured_metric = "B-score"
endpoint_result = "inactive"

[[record]]
compound = "CCN=C1S/C(=C\\c2cc(Br)ccc2OCC(=O)OCC)C(=O)N1CC"
measured_metric = "B-score"
endpoint_result = "inactive"

[[record]]
compound = "O=C(CSc1ccc(-c2cccs2)nn1)Nc1ccccc1F"
measured_metric = "B-score"
endpoint_result = "inactive"

[[record]]
compound = "O=C(O)c1ccc2c(=O)n3c(nc2c1)/C(=C/c1ccc(Cl)c([N+](=O)[O-])c1)CC3"
measured_metric = "B-score"
endpoint_result = "inactive"

[[record]]
compound = "CCC(C)(C(=O)NC1CCCCC1)N(C)C(=O)c1ccc2c(c1)OCO2 (stereo unspecified)"
measured_metric = "B-score"
endpoint_result = "inactive"

[[record]]
compound = "O=C(CNS(=O)(=O)c1ccccc1)NCC(=O)OCc1ccccc1F"
measured_metric = "B-score"
endpoint_result = "inactive"

[[record]]
compound = "Cc1cccc(CSc2ccc(-c3cccs3)nn2)c1"
measured_metric = "B-score"
endpoint_result = "7 (active)"

[[record]]
compound = "Cc1ccc(SCC(=O)NC(=O)NCc2ccco2)c(C)c1"
measured_metric = "B-score"
endpoint_result = "inactive"


Query block: Data request, read-out B-score, for Cc1cccc(CSc2nnc(NC(=O)CSc3nnc(C)s3)s2)c1
Result block: inactive

Query block: Data request, read-out B-score, for COc1ccc(Cl)cc1NC(=O)NC(C)C(C)(C)C (stereo unspecified)
Result block: inactive

Query block: Data request, read-out B-score, for CC(C)NS(=O)(=O)c1ccc(NC(=O)C2CCCCC2)cc1
Result block: inactive

* * *

measured.target: Potassium voltage-gated channel subfamily KQT member 1 (Homo sapiens) (UniProt P51787)
assay: inhibitors of human KCNQ1 channel, primary screen, cell-based, thallium flux, high-throughput (AID 2642);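 also: channel opened by potassium depolarization with thallium stimulus after 20 min compound exposure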
condition.label: CHO-K1 KCNQ1, FluxOR thallium flux fluorescence, at 10 µM
Hit rate of the full screen: of about 310,000 compounds, about 3,900 (1.3%) were called active.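 The calls were made as follows: active = compounds whose thallium flux B-score, printed positive for inhibition, exceeds three library SD while starting fluorescence stays within three; inactive = the rest.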 The sample as a whole holds a higher share of actives than the screen did.
Select the correct class. Options are active, inactive and nothing else.

Query block: GET /call?item= COc1ccc(-c2csc3ncnc(N4CCN(S(=O)(=O)c5ccccc5C#N)CC4)c23)cc1 returns the recorded outcome of this test.
Result block: inactive

Query block: GET /call?item= CCSc1nsc(NC(=O)Nc2cccc(C(C)=O)c2)n1 returns the recorded outcome of this test.
Result block: active

Query block: GET /call?item= CSc1ccc(S(=O)(=O)N2CCC(C(=O)NCc3ccncc3)CC2)cc1 returns the recorded outcome of this test.
Result block: inactive

Query block: GET /call?item= COCCn1cnc2c1c(=O)n(Cc1ccc(Br)cc1)c(=O)n2Cc1ccccc1 returns the recorded outcome of this test.
Result block: inactive

Query block: GET /call?item= COc1ccc(-c2csc3ncnc(N4CCN(S(=O)(=O)c5cccc(F)c5)CC4)c23)cc1 returns the recorded outcome of this test.
Result block: active

Query block: GET /call?item= CCSc1nsc(NC(=O)Nc2ccccc2OC)n1 returns the recorded outcome of this test.
Result block: inactive

Query block: GET /call?item= COc1ccc(-c2csc3ncnc(Oc4ccc5c(C)cc(=O)oc5c4)c23)cc1 returns the recorded outcome of this test.
Result block: inactive

Query block: GET /call?item= COc1ccc(S(=O)(=O)N2CCN(C)CC2)c(C)c1 returns the recorded outcome of this test.
Result block: inactive

Query block: GET /call?item= Cc1ccc(NC2=C(Cl)C(=O)OC2OC(=O)c2ccccc2C)cc1 (configuration not stated) returns the recorded outcome of this test.
Result block: inactive

Query block: GET /call?item= Cc1cc(C)n2nc(C(=O)OC(C)C(=O)c3cc(C)c(C)cc3C)nc2n1 (configuration not stated) returns the recorded outcome of this test.
Result block: inactive

Query block: GET /call?item= N=c1c2c(-c3ccccc3)c(-c3ccccc3)n(Cc3ccccc3)c2ncn1CCCO returns the recorded outcome of this test.
Result block: active

Query block: GET /call?item= CSc1nsc(NC(=O)Nc2ccccc2)n1 returns the recorded outcome of this test.
Result block: inactive

Query block: GET /call?item= COc1ccc(C(=O)Nc2sc(C)c(C)c2CN2CCOCC2)cc1 returns the recorded outcome of this test.
Result block: inactive

Query block: GET /call?item= COc1cc(OC)c(OC)cc1/C=N/Nc1ncnc2c1[nH]c1ccc(C)cc12 returns the recorded outcome of this test.
Result block: inactive

Query block: GET /call?item= CC(C)OCCCNc1ncnc2c1[nH]c1ccc(F)cc12 returns the recorded outcome of this test.
Result block: active

Query block: GET /call?item= CCCOc1cccc(C(=O)Nc2ccccc2C(=O)N2CCN(C)CC2)c1 returns the recorded outcome of this test.
Result block: inactive

Query block: GET /call?item= COc1ccc(C2NC(=O)C(=O)/C2=C(\O)c2ccc(Cl)cc2)cc1OC (configuration not stated) returns the recorded outcome of this test.
Result block: inactive

Query block: GET /call?item= CCC1=Nc2cc(C(=O)NCCN3CCCC3)ccc2Sc2ccc(C)cc21 returns the recorded outcome of this test.
Result block: inactive

Query block: GET /call?item= COc1ccc2c(c1)CCc1cn3ncc(C#N)c3nc1-2 returns the recorded outcome of this test.
Result block: inactive

Query block: GET /call?item= CCc1cc(C(N)=O)c(NC(=O)c2ccc(OC)cc2)s1 returns the recorded outcome of this test.
Result block: inactive

Query block: GET /call?item= CN(CCOc1ccc(Br)cc1)CC(=O)Nc1cccc(S(=O)(=O)NC2=NCCC2)c1 returns the recorded outcome of this test.
Result block: inactive

Query block: GET /call?item= Cc1cccc(-c2nc3ccc(C(=O)NCCN4CCN(C)CC4)cc3nc2-c2cccc(C)c2)c1 returns the recorded outcome of this test.
Result block: active

From: PubChem BioAssay AID2642
